measurementTarget: PABPC1 RRM2 including the RRM2-3 linker (residues 100-190) (human, UniProt P11940 100-190)
Sequence (P11940 100-190): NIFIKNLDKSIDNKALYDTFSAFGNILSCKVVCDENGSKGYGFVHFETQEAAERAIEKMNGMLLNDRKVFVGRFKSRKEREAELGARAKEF
assayProcedure: ITC
measurementType: pKd
// pKd: -log10(molar conc.)

[in] What value of pKd has been reported for the following binder? Paip2A(25-83) (residues 25-83 of PABP-interacting protein 2A) (domain or fragment, human, UniProt Q9BPZ3 25-83, looked up) HEDDNPFAEYMWMENEEEFNRQIEEELWEEEFIERCFQEMLEEEEEHEWFIPARDLPQT
[out] 5.40
